# System: Abelson 8.1
# Protocol Summary: Cytotoxicity on Albelson 8.1 tumor cells and percent of viable cells at 72 hr was determined at 3 ug/ml
# Type: functional, Mus musculus
Entries and their Viable cells values follow.
Report the figure in % without appending any unit label.

# example entries with known answers
| Smiles Repr | Reported Result |
| --- | --- |
| Fc1ccc(C2=Cc3ccccc3C3=NCCN23)cc1 | 58 |
| Cc1ccc2c(c1)C1=NCCN1C(c1ccc(C(C)(C)C)cc1)=C2 | 2 |
| Clc1cccc(C2=Cc3ccccc3C3=NCCN23)c1 | 60 |

Noted for Clc1ccc(C2=Cc3ccccc3C3=NCCN23)cc1 : its Viable cells reads 19

# molecule C1=C(c2ccc(CN3CCCCC3)cc2)N2CCN=C2c2ccccc21 ; its Viable cells = 12

---

# Tested on: Abelson 8.1
# Protocol Summary: Cytotoxicity on Albelson 8.1 tumor cells and percent of viable cells at 72 hr was determined at 5 ug/ml
# Type: functional, Mus musculus
Assay Endpoint: Viable cells (%)
Answer with a number only, understood to be in %.

Solved cases (3 shown):
| Smiles Repr | Reported Result |
| --- | --- |
| Cc1ccc(C2=Cc3ccccc3C3=NCCN23)cc1 | 7 |
| CCCCc1ccc(C2=Cc3ccccc3C3=NCCN23)cc1 | 1.3 |
| C1=C(c2cccc3ccccc23)N2CCN=C2c2ccccc21 | 1.4 |

Quick note, Viable cells for COc1ccc(C2=Cc3ccccc3C3=NCCN23)cc1 landed at 25

Form: molecule = COc1ccc(C2=Cc3ccccc3C3=NCCN23)cc1OC ; Viable cells = 37

The recorded Viable cells for C=CCN(CC=C)Cc1ccc(C2=Cc3ccccc3C3=NCCN23)cc1 is 1.2

---

Below, each of the compounds is paired with its reported Viable cells value.
# System: Abelson 8.1
# Protocol Summary: Cytotoxicity on Albelson 8.1 tumor cells and percent of viable cells at 72 hr was determined at 5 ug/ml
# Type: functional, Mus musculus
Give your result as the value with the unit written after it.

Consider the following illustrative entries.
| Smiles Repr | Viable cells |
| --- | --- |
| Clc1ccc(C2=Cc3ccccc3C3=NCCN23)cc1 | 1% |
| C1=C(c2ccc3ccccc3c2)N2CCN=C2c2ccccc21 | 1.7% |
| CC(C)(C)c1ccc(C2=Cc3cc(Cl)ccc3C3=NCCN23)cc1 | 1.5% |

Viable cells reading for C1=C(c2ccc(CN3CCCCC3)cc2)N2CCN=C2c2ccccc21 : 3%

Record C1=C(c2ccc(C3CCCCC3)cc2)N2CCN=C2c2ccccc21 , field Viable cells: 1.3%

compound CCc1ccc(C2=Cc3ccccc3C3=NCCN23)cc1 , Viable cells observed: 2%

The compound Cc1ccc2c(c1)C1=NCCN1C(c1ccc(C(C)(C)C)cc1)=C2 showed Viable cells equal to 2%

Sure, the documented Viable cells for CC(C)(C)c1ccc(C2=Cc3ccc(Cl)cc3C3=NCCN23)cc1 is 1.9%

Record summary for C1=C(c2cccnc2)N2CCN=C2c2ccccc21 : reported Viable cells = 93%

---

# Tested on: Abelson 8.1
# Protocol Summary: Cytotoxicity on Albelson 8.1 tumor cells and percent of viable cells at 72 hr was determined at 3 ug/ml
# Format: functional, Mus musculus
Assay Endpoint: Viable cells (%)
Form entry: value (%) — number only.

| Smiles Repr | Unit Tag | Reported Result |
| --- | --- | --- |
| CC(C)(C)c1ccc(C2=Cc3cc(Cl)ccc3C3=NCCN23)cc1 | % | 1.7 |

For reference, reported Viable cells for C1=C(c2ccc(-c3ccccc3)cc2)N2CCN=C2c2ccccc21 stands at 1.6

Sure, the documented Viable cells for Cc1ccc(C2=Cc3ccccc3C3=NCCN23)cc1 is 38

---

# Test system: Abelson 8.1
# Protocol Summary: Cytotoxicity on Albelson 8.1 tumor cells and percent of viable cells at 72 hr was determined at 5 ug/ml
# Type: functional, Mus musculus
Assay Endpoint: Viable cells (%)
Form entry: value (%) — number only.

Consider the reported Viable cells for these compounds:
| Smiles Repr | Viable cells [%] |
| --- | --- |
| Fc1ccc(C2=Cc3ccccc3C3=NCCN23)cc1 | 30 |
| C1=C(c2ccc(-c3ccccc3)cc2)N2CCN=C2c2ccccc21 | 1.4 |
| C1=C(c2cccs2)N2CCN=C2c2ccccc21 | 2.3 |
| C[Si](C)(C)c1ccc(C2=Cc3ccccc3C3=NCCN23)cc1 | 0.5 |

For the next question, use this compound.
Record C1=C(c2ccc3c(c2)OCO3)N2CCN=C2c2ccccc21 ; system Abelson 8.1; Viable cells = 10
